- Tested on: SEM cells
- assay-protocol: cell viability relative to DMSO control; higher = less cytotoxic
- protocol-conditions: RPMI 5 mM glucose + 10% FBS; 48 h; 0.19 µM
Measured cell viability, listed per entry for reference.
Just the number please, in %, no unit attached.

Here is how some molecules turned out for cell viability.
molecule: CC(=O)C1=C(O)C2(C)C(=CC1=O)Oc1c(C(C)=O)c(O)c(C)c(O)c12 (stereo not drawn)
reported-result: 152
--
molecule: NC1CCC(Nc2nc(Nc3ccc(C(=O)N4CCCCC4)cc3)c3ncn(-c4cccc(F)c4)c3n2)CC1 (stereo not drawn)
reported-result: 124

Input line: Please give the documented cell viability of `CN1\N=N/C2=C(N=C[N]2C1=O)C(N)=O`
Output line: 67.7

Input line: Please give the documented cell viability of `C[C@H](NC(=O)Cc1cc(F)cc(F)c1)C(=O)N[C@@H]1C(=O)N(C)c2ccccc2-c2ccccc21`
Output line: 103

Input line: Please give the documented cell viability of O=C(O)CSCC(=O)NC1CCSC1=O (stereo not drawn)
Output line: 113

Input line: Please give the documented cell viability of `CO[C@H]1/C=C/O[C@@]2(C)Oc3c(C)c(O)c4c(O)c(c(/C=N\N5CCN(C6CCCC6)CC5)c(O)c4c3C2=O)NC(=O)/C(C)=C\C=C\[C@H](C)[C@H](O)[C@@H](C)[C@@H](O)[C@@H](C)[C@H](OC(C)=O)[C@@H]1C`
Output line: 9.34

Input line: Please give the documented cell viability of `O=C(Nc1ccc([N+](=O)[O-])cc1Cl)c1cc(Cl)ccc1O`
Output line: 105

Input line: Please give the documented cell viability of COCCCOc1ccnc(C[S+]([O-])c2nc3ccccc3[nH]2)c1C (stereo not drawn)
Output line: 79

Input line: Please give the documented cell viability of `CCCOc1ccc2[nH]c(NC(=O)OC)nc2c1`
Output line: 14.1

Input line: Please give the documented cell viability of `CNC(=O)c1ccc(N2C(=S)N(c3ccc(C#N)c(C(F)(F)F)c3)C(=O)C2(C)C)cc1F`
Output line: 81.9

Input line: Please give the documented cell viability of COc1nccc(-c2c(-c3ccc(F)cc3)ncn2C2CCC(O)CC2)n1 (stereo not drawn)
Output line: 56.7

Input line: Please give the documented cell viability of `O=[S+]([O-])(/N=C/c1c(O)ccc2ccccc12)c1cccs1`
Output line: 120

Input line: Please give the documented cell viability of `O=C(O)CCNc1cc(N2CCc3ccccc3CC2)nc(-c2ccccn2)n1`
Output line: 103

Input line: Please give the documented cell viability of `CCCc1nc2c(C)cc(-c3nc4ccccc4n3C)cc2n1Cc1ccc(-c2ccccc2C(=O)O)cc1`
Output line: 124

====

- Test system: P12-Ichikawa
- assay-protocol: cell viability relative to DMSO control; higher = less cytotoxic
- protocol-conditions: HPLM + 10% dialyzed FBS; 48 h; 15.4 µM
result-type: cell viability (%)
Just the number please, in %, no unit attached.

Here is how some molecules turned out for cell viability.
compound: FC(F)(F)C1=CC=C2C(SCCCCCO\C3=C\O\C(CN4CCOCC4)=C/C3=O)=CC=NC2=C1
result-type: cell viability
reported-result: 107
//
compound: Cc1cc(SCc2sc(-c3ccc(C(F)(F)F)cc3)nc2C)ccc1OCC(=O)O
result-type: cell viability
reported-result: 94.9

Input line: Please give the documented cell viability of `C[C@H](NC(=O)Cc1cc(F)cc(F)c1)C(=O)N[C@@H]1C(=O)N(C)c2ccccc2-c2ccccc21`
Output line: 3.41

Input line: Please give the documented cell viability of `COc1cc(Nc2ncc(F)c(Nc3ccc4c(n3)N(COP(=O)(O)O)C(=O)C(C)(C)O4)n2)cc(OC)c1OC`
Output line: 108

Input line: Please give the documented cell viability of `NCCCC(O)(P(=O)(O)O)P(=O)(O)O.O.O.O.[Na+]`
Output line: 45.1

====

Measured cell viability, listed per entry for reference.
- System: NOMO1
- assay-protocol: cell viability relative to DMSO control; higher = less cytotoxic
- protocol-conditions: HPLM + 10% dialyzed FBS; 48 h; 46.1 µM
Just the number please, in %, no unit attached.

Here is how some compounds turned out for cell viability.
compound: CC(Cc1ccc(O)c(O)c1)(NN)C(=O)O (configuration not stated)
target-of-assay: NOMO1
unit-info: %
reported-result: 92.3
//
compound: CN(C)/[N+]([O-])=N/Oc1cc(ON[N+](=O)N2CCN(C(=O)c3cc(Cc4n[nH]c(=O)c5ccccc45)ccc3F)CC2)c([N+](=O)[O-])cc1[N+](=O)[O-]
target-of-assay: NOMO1
unit-info: %
reported-result: 117
//
compound: Cn1c(=O)c2[nH]cnc2n(C)c1=O
target-of-assay: NOMO1
unit-info: %
reported-result: 84.8
//
compound: CCCOc1ccc2[nH]c(NC(=O)OC)nc2c1
target-of-assay: NOMO1
unit-info: %
reported-result: 36.6
//
compound: CC(C)C(=O)Nc1ncc(-c2cc(C(F)F)nn2-c2c(Cl)cccc2Cl)s1
target-of-assay: NOMO1
unit-info: %
reported-result: 83.9

Input line: Please give the documented cell viability of `CC[C@H](NC(C)C)[C@H](O)c1ccc(O)c2[nH]c(=O)ccc12`
Output line: 104

====

Measured cell viability, listed per entry for reference.
- Tested on: P12-Ichikawa
- assay-protocol: cell viability relative to DMSO control; higher = less cytotoxic
- protocol-conditions: RPMI 5 mM glucose + 10% FBS; 48 h; 46.1 µM
Just the number please, in %, no unit attached.

compound: O=[S+]([O-])(O)c1ccc2cc(/N=N/c3cc([S+](=O)([O-])O)c4cccnc4c3O)ccc2c1
target-of-assay: P12-Ichikawa
cell viability (%): 59.2

Input line: Please give the documented cell viability of `CCOC(CN1C(=O)[C@](CC(=O)Nc2ccc(C)cc2)(NC(=O)Nc2ccc(C)cc2)c2ccccc21)OCC`
Output line: 34.8

Input line: Please give the documented cell viability of `NCCCC(O)(P(=O)(O)O)P(=O)(O)O.O.O.O.[Na+]`
Output line: 51.4

Input line: Please give the documented cell viability of `CO[C@H]1/C=C/O[C@@]2(C)Oc3c(C)c(O)c4c(O)c(c(/C=N\N5CCN(C6CCCC6)CC5)c(O)c4c3C2=O)NC(=O)/C(C)=C\C=C\[C@H](C)[C@H](O)[C@@H](C)[C@@H](O)[C@@H](C)[C@H](OC(C)=O)[C@@H]1C`
Output line: -0.516

====

- Test system: NOMO1
- assay-protocol: cell viability relative to DMSO control; higher = less cytotoxic
- protocol-conditions: HPLM + 10% dialyzed FBS; 48 h; 1.71 µM
Measured cell viability, listed per entry for reference.
Kindly format the answer as number then unit.

Here is how some compounds turned out for cell viability.
compound: CCCOc1ccc2[nH]c(NC(=O)OC)nc2c1
cell viability: 32%
//
compound: COC(=O)Nc1ccc(-c2nc(N3CCOCC3)c3cnn(C4CCN(Cc5cccnc5)CC4)c3n2)cc1
cell viability: 70.6%
//
compound: Nc1nc(Nc2ccc([S+](N)(=O)[O-])cc2)nn1C(=O)c1c(F)cccc1F
cell viability: 107%
//
compound: COC/1=C/[C@@H]2[C@@H]3CC4=C(C(=C(OC)C=C4)O)[C@]2(CCN3C)CC1=O
cell viability: 161%
//
compound: CO[C@@H]1[C@@H](OC(N)=O)[C@@H](O)[C@H](OC2=CC=C3\C(=C(NC(=O)C4=CC=C([O-])C(=C4)CC=C(C)C)/C(=O)OC3=C2C)O)OC1(C)C
cell viability: 91.9%
//
compound: CC(Cc1ccc(O)c(O)c1)(NN)C(=O)O (centres undefined)
cell viability: 99.3%
//
compound: CC(C[N+](C)(C)C)OC(N)=O (centres undefined)
cell viability: 117%
//
compound: O=C(C[C@@H]1C/C=C\CCC(=O)O[C@H](c2ccccc2)CNC1=O)NCc1ccc(Cl)cc1
cell viability: 114%

# evaluate next
Input line: Please give the documented cell viability of `C=CCc1cc(OC)c(O)c(C(=O)NCCO)c1`
Output line: 106%

====

Measured cell viability, listed per entry for reference.
- Test system: NOMO1
- assay-protocol: cell viability relative to DMSO control; higher = less cytotoxic
- protocol-conditions: RPMI 5 mM glucose + 10% FBS; 48 h; 0.0211 µM
Just the number please, in %, no unit attached.

compound: C=CC(=O)Nc1cccc(Oc2nc(Nc3ccc(N4CCN(C)CC4)cc3OC)ncc2Cl)c1
cell viability / %: 78.8
--
compound: C[C@H]1C[C@H]2[C@@H]3CCC4=CC(=O)C=C[C@]4(C)[C@H]3C(=O)C[C@]2(C)[C@@]1(O)C(=O)CO
cell viability / %: 91.6
--
compound: Cn1c(=O)c2[nH]cnc2n(C)c1=O
cell viability / %: 104
--
compound: COc1ccccc1OCCNCC(O)COc1cccc2[nH]c3ccccc3c12 (centres undefined)
cell viability / %: 119
--
compound: N#CC1(c2ccc(NC(=O)c3cccnc3NCc3ccncc3)cc2)CCCC1
cell viability / %: 102

Input line: Please give the documented cell viability of `CN1CC/C(CC1)=C3\c4ccccc4CC(=O)c2sccc23`
Output line: 135

Input line: Please give the documented cell viability of `CCCCOc1ccc(CC(=O)NO)cc1`
Output line: 99.3
